# credit: a melting point compilation (Tetko et al.; mined from patent text by program, amines drawn as free bases though some values may be those of a salt)

Provide the recorded melting point for the entries that follow.

Previously resolved entries follow.
CCCS(=O)(=O)N[C@@H](CC(C)C)C(=O)N[C@@H](C(C)C)[C@@H](O)c1c(-c2ccccc2)c1=O    195 to 196 °C
COC(=O)CC(c1ccc(C)cc1)N1C(=O)c2ccccc2C1=O (stereo unspecified)    97 to 99 °C
CSc1ccc(NC(=O)N(O)C(C)C)cc1    150 °C
CCCc1c(O)ccc(C(=O)OCc2ccccc2)c1O    86 to 88 °C
CC(C)(C)CN1C(=O)C(=O)N(c2ccc(F)cc2)C1=S    165 to 166 °C

Here is another compound to look at.
Task: Request the reported melting point associated with Cc1c[nH]c2c1CC1CNCCC1C2 (stereo unspecified)
Output: 151 to 153 °C

* * *

Hi there, I'd appreciate the recorded melting point for every entry that follows.

Study these solved cases before continuing.
O=C1C=C(NC(=O)C(=O)c2cn(Cc3cc(C(F)(F)F)cc(C(F)(F)F)c3)c3ccccc23)CO1    276 to 278 °C
CC(=Cc1ccc(C(C)(C)C)cc1)C[N+]1([O-])CCCCC1    82 to 88 °C
CNC(=NS(=O)(=O)N1CCCCC1)N1CC(c2ccccc2)C(c2ccc(Cl)cc2)=N1 (centres undefined)    175 to 177 °C
Fc1ccc(-c2cc(N3CCN(CC4CC4)CC3)nc3c2CCCCCC3)cc1    109 to 110 °C
CC(C)c1cccc(C(C)C)c1NC(=O)NCC1(c2ccc3ccccc3c2)CCCC1    152 to 154 °C
COc1cc2oc3ccc(C#N)cc3c2cc1F    206 to 208 °C
CC1(Cn2c(=O)n(-c3ccccc3)c3ccccc32)Cn2cc([N+](=O)[O-])nc2O1 (centres undefined)    234 to 235 °C
O=C(Nc1cccc2cc(COc3ccccc3)cnc12)c1c(Cl)cccc1Cl    157 °C
Cc1nccc2c3ccc(O)cc3n(Cc3ccccc3)c12    234 °C
O=S(CCO)CCC(c1cc(F)ccc1F)S(=O)(=O)c1ccc(Cl)cc1 (centres undefined)    124 to 132 °C

Take each entry in turn and give its melting point.
1. CCOC(=O)c1csc(C=O)n1
2. O=c1n(CCC#Cc2ccccn2)nc2ccccn12
3. CC1=CN2CCS(=O)(=O)N=C2C(c2ccc(OC3CCCCC3)cc2)=N1
4. CCOC(=O)c1cc(CC)sc1Nc1c([N+](=O)[O-])cccc1C(F)(F)F
5. COc1ccc(CSc2nnc(-c3ccc4c(c3)CCO4)o2)cc1

Output:
["65 to 67 °C", "95.5 to 96 °C", "216 to 217 °C", "72 to 73 °C", "121 to 124 °C"]

Each molecule below has a reported value. Please supply its melting point.
1. O=C(NC1CCN(CCCCc2ccccc2)C1)C12CC3CC(CC(C3)C1)C2 (centres undefined)
2. CC(C)(C)c1cc([PH](=O)c2cc(C(C)(C)C)cc(C(C)(C)C)c2)cc(C(C)(C)C)c1
3. CC(=O)Nc1nc2c(s1)-c1nc(-c3ccccc3Cl)ncc1C2
4. Cc1sc(C)c2c1CCC=C2c1c[nH]cn1
5. CN=C(NC#N)Nc1ccc2c(c1)CCC1CC(=O)NN=C21 (centres undefined)
6. Cc1c[nH]c(=O)n(C(=O)c2ccccc2)c1=O
7. O=Cc1ccc(-c2ccc3ncnc(Nc4ccc(OCc5cccc(F)c5)c(Cl)c4)c3c2)s1
8. C#CC1N(C(=O)Oc2ccccc2)c2ccc(OCc3ccccc3[N+](=O)[O-])cc2C23OC12CCCC3=O (centres undefined)

Output:
["82 to 84 °C", "185 °C", "257 °C", "179 to 180 °C", "289 °C", "178 to 180 °C", "252 °C", "128 to 130 °C"]

Hi! Can you tell me melting point for each of these molecules?
1. CC1(COc2ccc(OCCN3CC(COc4ccccc4)OC3=O)cc2)OCCO1 (centres undefined)
2. O=C(O)CCc1ccc(O)c([N+](=O)[O-])c1
3. CCOC(=O)C(CC1C(O)C2CCN1CC2)c1ccccc1 (centres undefined)

Output:
75 to 77 °C
80 to 82 °C
148 °C
